# System: NCI-H322M lung
# assay procedure: NCI-60 one-dose screen, 48 h (100 = growth as untreated, 0 = no growth, -100 = all killed)
# condition: 10 µM unless noted
The panel holds about 83,000 compounds, 20% with a hit somewhere; the sample as a whole holds those more often. The source made the active and inactive calls. The calls were made as follows: active = growth percent below 10; inactive = the rest.
assay readout: growth

INPUT: Sample COc1ccc2[nH]c(-c3ccccc3)c(C=C(C#N)C#N)c2c1 — what was its growth?
OUTPUT: 59.1% (inactive)

INPUT: Now consider CCCCOc1nc2ccc(C)cc2cc1/C=C/C(=O)/C=C/c1ccc2c(c1)OCO2 .
OUTPUT: 88% (inactive)

====

# Tested on: HOP-92 NSCLC
# assay procedure: NCI-60 one-dose screen, 48 h (100 = growth as untreated, 0 = no growth, -100 = all killed)
# condition: 10 µM unless noted
# Experimental: Growth inhibition of the HOP-92 human Non-Small Cell Lung tumor cell line is measured as a screen for anti-cancer activity. Cells are grown in 96 well plates and exposed to the test compound for 48 hours. Compounds are tested at a single concentration, which is 10^-5 M for most compounds. The reported endpoint is percent growth (GI% or GIPRCNT), where numbers from 0 - 100% represent growth inhibition, and numbers from -100% - 0 represent cell death. […]
This is part of a sample that, as a whole, favours compounds with a hit. Of some 83,000 tested, about 20% had one in any assay.
Reported growth values follow for various compounds
Write it as a number; the unit % goes unstated.

Recorded results for 5 compounds are shown here.
1. CCOC(=O)c1c(C)nc2c(c1N)/C(=C/c1cccs1)C(=O)N2c1ccc(OC)cc1 | 22
2. NS(=O)(=O)c1ccc(-n2nc(-c3ccccc3)ccc2=O)cc1 | 97.1
3. O=C(CN1N=C(c2ccc(F)cc2)CCC1=O)Nc1nc2ccccc2s1 | -77.1
4. O=C(Nc1ccc(N=Cc2ccccc2O)cc1)NC1C=c2ccccc2=CC1 (stereo not given) | 109
5. COc1cc(C2=NNC(c3ccc(N(C)C)cc3)C2)cc(OC)c1OC (stereo not given) | 29.2

INPUT: Give its growth value. Item: COCCOC(=O)COc1ccc(OC)cc1
OUTPUT: 98.3

INPUT: Then O=C(CCc1nnco1)c1nc2ccc([N+](=O)[O-])cc2[nH]1 ?
OUTPUT: 119

INPUT: Please answer likewise for O=c1[nH]c(-c2cccc(F)c2)cc2cc(F)ccc12
OUTPUT: 70.7

INPUT: Can you check CN1CC=C(c2cc(NC(=O)Nc3ccc(Oc4ccnc(NC(=O)C5CC5)c4)c(F)c3)cc(C(F)(F)F)c2)CC1 next?
OUTPUT: -17

INPUT: Try this compound too: O=C(O)c1cc(N=Nc2ccc(-c3ccc(N=Nc4c(S(=O)(=O)O)cc5ccc(Nc6ccccc6)cc5c4O)cc3)cc2)ccc1O
OUTPUT: 114

====

# System: 786-0 renal
# assay procedure: NCI-60 one-dose screen, 48 h (100 = growth as untreated, 0 = no growth, -100 = all killed)
# condition: 10 µM unless noted
This is part of a sample that, as a whole, favours compounds with a hit. Of some 83,000 tested, about 20% had one in any assay.
assay readout: growth (%)
Write it as a number; the unit % goes unstated.

Examples with answers:
1) CCCCCCCc1n(Cc2ccc3ccccc3c2)c2ccccc2[n+]1Cc1ccc2ccccc2c1 | -65.1
2) Nc1c(C(=O)Nc2ccccn2)sc2nc3c(cc12)CCCCC3 | 27.6
3) CN(C)CCCn1c2c(c3cc(-c4ccco4)ccc3c1=O)C(=O)c1ccccc1-2 | 69.2
4) Cc1nccc2c3ccc(OCc4cn(-c5ccc(Br)cc5)nn4)cc3n(CC(C)C)c12 | 28.5
5) Cc1cccc(C)c1NC(=O)CN(CC(C)C)CC(O)COc1ccccc1 (stereo not given) | 78.6
6) C#CCOC(=O)[C@]1(C)CCC[C@]2(C)[C@H]3C[C@H]4C(C(C)C)=C[C@]3(CC[C@H]21)[C@@H]1C(=O)CCC(=O)[C@@H]14 | 88.5
7) O=C1C(=O)c2c(nc3ccc(Br)cn23)-c2ccccc21 | -96.9
8) O=C1NCc2ccc3c(-c4cccc(Cl)c4)c[nH]c3c21 | 31.4
9) Cc1cc(C)n(-c2nc(-c3cccs3)c(C#N)c(=O)[nH]2)n1 | 93.1
10) CN1CC=C(c2cc(NC(=O)Nc3ccc(Oc4ccnc(NC(=O)C5CC5)c4)c(F)c3)cc(C(F)(F)F)c2)CC1 | -6.75

INPUT: // query growth value for entry CCOC(=O)CC[C@H](NC(=O)c1ccc(NC)c2ccccc12)C(=O)OCC
OUTPUT: 102

INPUT: Another: CCC[S@](=O)c1ccc2nc(NC(=O)OC)[nH]c2c1
OUTPUT: 94.2

INPUT: // same read-out, input: CC1CCCN(CCCCCOc2ccc3oc4ccccc4c(=O)c3c2)C1 (stereo not given)
OUTPUT: 69.8

INPUT: Also Cc1c(Cl)cccc1NC(=O)c1sc2nc3c(cc2c1N)CN(Cc1ccccc1)CC3 , if possible.
OUTPUT: 42.9

INPUT: Repeat with COc1ccc(/C=C/C(=O)/C=C(/C=C/c2ccc(OC)c(OC)c2)OB(F)F)cc1OC
OUTPUT: 12.5

====

# System: BT-549 breast
# assay procedure: NCI-60 one-dose screen, 48 h (100 = growth as untreated, 0 = no growth, -100 = all killed)
# condition: 10 µM unless noted
Compounds without any hit were thinned out: in the full panel of roughly 83,000, 20% have a hit.
Please respond with True when measured growth is strictly beneath 60%, and with False in all other cases.

Sample answers from the record:
1. CCOC(=O)c1cnn(-c2nc(-c3ccc(F)cc3)c(C#N)c(N3CCOCC3)n2)c1N | False
2. CCOC(=O)c1c(C)nc2c(c1N)/C(=C/c1cccs1)C(=O)N2c1ccc(OC)cc1 | True
3. c1ccc(-c2n(Cc3ccc4ccccc4n3)cc[n+]2Cc2ccc3ccccc3n2)cc1 | True
4. COc1ccccc1C(=O)/C=C/c1cc2cccc(OC)c2[nH]c1=O | True
5. CCN(CC)c1ccc2c(c1)Oc1nc(N)c(C#N)c(N)c1C2Sc1ccc(OC)cc1 (centres undefined) | True
6. Cc1[nH]c2ncnc(Oc3ccc(NC(=O)Nc4ccc(Cl)c(C(F)(F)F)c4)cc3)c2c1C | False

Now consider the entry below.
INPUT: Consider the compound COc1cccc(C(=O)OCCn2nc3c4c(cccc42)C(=O)c2ccccc2-3)c1O . Is its growth strictly less than 60%?
OUTPUT: True

====

This listing pairs compounds with measured growth.
# Test system: RPMI-8226 leukemia
# assay procedure: NCI-60 one-dose screen, 48 h (100 = growth as untreated, 0 = no growth, -100 = all killed)
# condition: 10 µM unless noted
This is part of a sample that, as a whole, favours compounds with a hit. Of some 83,000 tested, about 20% had one in any assay.
Expressed in %, but write only the number.

In the examples that follow, each entry is paired with its recorded growth.
1) CCSc1ccc(C2C(Br)C(=O)N2c2cc(OC)c(OC)c(OC)c2)cc1 (configuration not stated) | 9.73
2) COc1ccc(-c2nc(C#N)c(NCC(c3ccco3)N3CCCC3)o2)cc1 (configuration not stated) | 24.2
3) O=[N+]([O-])c1ccc(N=Nc2c(O)c(N=Nc3cc([N+](=O)[O-])cc([N+](=O)[O-])c3O)cc(N=Nc3cc(S(=O)(=O)O)cc4cc(S(=O)(=O)O)cc(O)c34)c2O)cc1 | 102
4) C[C@H](Oc1cc(-c2cnn(C3CCNCC3)c2)cnc1N)c1c(Cl)ccc(F)c1Cl | 23.3
5) COc1cc(/C=N/Nc2nc(-c3ccc(F)cc3)c(C#N)c(N3CCOCC3)n2)ccc1O | 87.1

INPUT: Query the reported growth for RPMI-8226 leukemia; item: COC(=O)/C=C/c1cc(OC(C)=O)c2c(c1)C(C(=O)OC)C(c1ccc(OC(C)=O)c(OC(C)=O)c1)O2 (configuration not stated)
OUTPUT: 11.1

INPUT: For CCOC(=O)/C(=C/c1c(-c2ccccc2)[nH]c2ccccc12)C(=O)c1ccc(Cl)cc1 then?
OUTPUT: -17.2

INPUT: Let us now turn to COCCOCCOCc1n(Cc2ccc3ccccc3n2)c2ccccc2[n+]1Cc1ccc2ccccc2n1
OUTPUT: 1.07

====

# Test system: T-47D breast
# assay procedure: NCI-60 one-dose screen, 48 h (100 = growth as untreated, 0 = no growth, -100 = all killed)
# condition: 10 µM unless noted
This is part of a sample that, as a whole, favours compounds with a hit. Of some 83,000 tested, about 20% had one in any assay.
Think of 50% as a floor: if growth stands on it or above, it is True; beneath it, False.

1) CC(=O)OC[C@]12CC[C@@H](c3cn(Cc4ccc(Cn5cc([C@@H]6CC[C@]7(COC(C)=O)CC[C@]8(C)[C@H](CC[C@@H]9[C@@]%10(C)CC[C@H](OC(C)=O)C(C)(C)[C@@H]%10CC[C@]98C)[C@@H]67)nn5)cc4)nn3)[C@@H]1[C@H]1CC[C@@H]3[C@@]4(C)CC[C@H](OC(C)=O)C(C)(C)[C@@H]4CC[C@@]3(C)[C@]1(C)CC2 | True
2) Cc1nn(-c2ccc(-c3ccc(OC(F)(F)F)cc3)cc2)c2nc(-c3ccccc3)nc(N)c12 | True
3) COc1cc(F)c(-c2nc3c(C)cccc3n2Cc2c(F)cccc2F)c(F)c1 | True
4) CC(=O)Oc1c2c(nc3c1c1ccccc1n3Cc1ccccc1)-c1ccccc1C2 | True
5) CCOC(=O)c1c(C)nc2c(c1N)/C(=C/c1cccs1)C(=O)N2c1ccc(OC)cc1 | False
6) NS(=O)(=O)c1ccc(-n2nc(-c3ccccc3)ccc2=O)cc1 | True
7) NC(=N\N=C\c1ccccc1O)/C(N)=N/N=C/c1ccccc1O | True
8) Cn1c2ccccc2c2c(OC(=O)c3ccccc3)c3c(nc21)-c1ccccc1C3 | True

INPUT: Confirm if growth reported for the compound C=C(C)[C@@H]1CC[C@]2(C(=O)N=C=S)CC[C@]3(C)[C@H](CC[C@@H]4[C@@]5(C)CCC(=O)C(C)(C)[C@@H]5CC[C@]43C)[C@@H]12 is 50% or above.
OUTPUT: False

INPUT: Same again, this time with Cc1ccccc1NC(=O)c1sc2nc(C)c(C(C)O)cc2c1N (stereo unspecified)
OUTPUT: True

INPUT: Another compound: O=C(CN1N=C(c2ccc(F)cc2)CCC1=O)Nc1nc2ccccc2s1
OUTPUT: True

INPUT: Next compound up: Nc1cccc(C(=O)Nc2ccc3c(O)c(N=Nc4ccc(N=Nc5ccc(S(=O)(=O)O)cc5)cc4)c(S(=O)(=O)O)cc3c2)c1
OUTPUT: True

INPUT: What do you have for CN1CC=C(c2cc(NC(=O)Nc3ccc(Oc4ccnc(NC(=O)C5CC5)c4)c(F)c3)cc(C(F)(F)F)c2)CC1 ?
OUTPUT: False

INPUT: And then CCCCC(=O)Nc1c(C(=O)Nc2ccccc2)sc2nc3c(cc12)C(OC(=O)CCCC)CCC3 (stereo unspecified) , what is it?
OUTPUT: True

INPUT: Can you check CCOC(=O)c1c(C)nc2c(c1N)/C(=C/c1ccc[nH]1)C(=O)N2Cc1ccc(C(F)(F)F)cc1 next?
OUTPUT: False

INPUT: Also COc1ccc(-n2cc(-c3ccc(Cl)c(Cl)c3)[nH]c2=O)cc1OC ?
OUTPUT: True

INPUT: Now consider O=C(CCc1nnc2sc(OCc3ccccc3)nn12)c1nc2ccc([N+](=O)[O-])cc2[nH]1 .
OUTPUT: True

INPUT: Let us now turn to Nc1c(C(=O)Nc2cccc3ccccc23)sc2nc3c(cc12)COCC3
OUTPUT: True

INPUT: Follow-up item: CCCCc1n(Cc2ccc3ccccc3n2)cc[n+]1Cc1ccc2ccccc2c1
OUTPUT: False

INPUT: Same question for CC(C)(C#N)c1cc(F)cc(C(=O)Nc2cc(Nc3ncccc3-c3ncnc4nc[nH]c34)ccc2F)c1 please.
OUTPUT: False

INPUT: Check CN1CCN(/C=C2\CC(C(=O)NCc3ccc(Cl)cc3Cl)NC2=O)CC1 (stereo unspecified) too.
OUTPUT: True

INPUT: Try this compound too: COc1ccc(-c2cc(-c3nnc(SCC(=O)Nc4ccc(/C(C)=N\O)cc4)o3)c3ccccc3n2)cc1
OUTPUT: True

Origin of the recorded values: PubChem BioAssay (NCI)
